test-details: Intrinsic clearance in human liver microsome
Format: ADME
measurement-parameters: liver microsomes
property-name: CLint scaled (mL/min/kg)
Number only, in mL/min/kg; omit the unit.

Asked: Quick check: CLint scaled of C[C@H]1Cc2c([nH]c3cc(Cl)c(F)cc23)[C@@]2(N1)C(=O)Nc1ccc(Cl)cc12 ?
Given back: 8.67

----------
study-system: Muscarinic acetylcholine receptor M2 (Homo sapiens, UniProt P08172)
Sequence (P08172 whole entry): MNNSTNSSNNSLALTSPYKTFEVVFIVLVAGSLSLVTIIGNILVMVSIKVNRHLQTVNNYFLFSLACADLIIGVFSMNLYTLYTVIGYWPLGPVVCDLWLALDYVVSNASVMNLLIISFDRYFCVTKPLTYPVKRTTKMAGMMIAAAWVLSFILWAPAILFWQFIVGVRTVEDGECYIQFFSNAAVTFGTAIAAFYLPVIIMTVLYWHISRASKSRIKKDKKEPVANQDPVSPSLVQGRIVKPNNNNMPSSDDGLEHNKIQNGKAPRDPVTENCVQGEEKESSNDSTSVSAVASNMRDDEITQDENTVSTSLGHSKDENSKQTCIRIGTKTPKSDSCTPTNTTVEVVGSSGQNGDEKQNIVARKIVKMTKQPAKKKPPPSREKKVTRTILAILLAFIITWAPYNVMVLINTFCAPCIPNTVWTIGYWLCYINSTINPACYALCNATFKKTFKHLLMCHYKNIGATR
test-details: Binding affinity to human recombinant muscarinic M2 receptor
pIC50: −log10 of the molar value.
property-name: pIC50

Asked: Quick check: pIC50 of C[C@H]1Cc2c([nH]c3cc(Cl)c(F)cc23)[C@@]2(N1)C(=O)Nc1ccc(Cl)cc12 [CIPARGAMIN] ?
Given back: < 5.00

The reported measurements were obtained from ChEMBL document CHEMBL1240532.
